System: KRASm/TP53w HCT116 cells
Test: MTS cell viability assay, KRASm/TP53w HCT116
Assay type: cell-based
Details: read-out: IC50 on KRASm/TP53w HCT116 cells, 72 hours post-treatment, n = 3

CHEMICAL STRING | IC50
O=C1[O][Pt]2([NH][C@@H]3CCCC[C@H]3[NH]2)[O]C1=O | 1700 nM

====

Tested on: KRASm/TP53‐ HCT116 cells
Assay: MTS cell viability assay, KRASm/TP53‐ HCT116
Format: cell-based
Details: read-out: IC50 on KRASm/TP53‐ HCT116 cells; MTS assay, 72 hours post-treatment, n = 3
pIC50: −log10 of the molar value.

COMPOUND | pIC50
O=C1[O][Pt]2([NH][C@@H]3CCCC[C@H]3[NH]2)[O]C1=O [L‐OHP, oxaliplatin] | 5.32
